Target: T1, soluble FGFR1c receptor protein (human, UniProt P11362 141-376)
T1 sequence: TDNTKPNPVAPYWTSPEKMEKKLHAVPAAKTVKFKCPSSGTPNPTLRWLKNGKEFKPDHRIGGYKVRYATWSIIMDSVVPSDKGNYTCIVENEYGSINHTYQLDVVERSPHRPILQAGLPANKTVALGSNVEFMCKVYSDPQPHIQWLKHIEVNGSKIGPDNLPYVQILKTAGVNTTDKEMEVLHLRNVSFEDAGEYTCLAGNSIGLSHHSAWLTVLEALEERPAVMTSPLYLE
Test: BLI Octet RED96, antibody on anti-hIgG Fc tip
Readout: pKd
The meaning of pKd here: minus log10 of the concentration in molar units.

Please review the following examples before continuing.
[
  {
    "Binder": "Vk6 combined with the VH of Ab15 (antibody, V domains shown, captured on anti-human IgG Fc tips) VH: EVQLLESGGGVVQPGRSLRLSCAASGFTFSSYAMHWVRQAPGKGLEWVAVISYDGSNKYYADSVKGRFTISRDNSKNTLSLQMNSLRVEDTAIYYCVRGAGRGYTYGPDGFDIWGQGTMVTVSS VL: DIVMTQTPLSLSVTPGQPASISCKSSQSLLHSDGKTYLYWYLQKPGQPPQLLIYELSNRFSGVPDRFSGSGSGTDFTLKISRVEAEDVGVYYCMQYIEAPLTFGGGTKVEIK",
    "pKd": 8.19
  },
  {
    "Binder": "Vk3 combined with the VH of Ab15 (antibody, V domains shown, captured on anti-human IgG Fc tips) VH: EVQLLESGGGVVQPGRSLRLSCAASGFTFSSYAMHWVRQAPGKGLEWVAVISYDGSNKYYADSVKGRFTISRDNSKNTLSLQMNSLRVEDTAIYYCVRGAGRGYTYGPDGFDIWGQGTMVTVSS VL: DIVMTQTPLSLSVTPGQPASISCTSSRSLLHSDGKTYVYWYLQKSGQPPQLLIYELSNRFSGVPDRFSGSGSRTDFTLKISRVEAEDVGVYYCMQYIEAPLTFGGGTKVEIK",
    "pKd": 8.32
  },
  {
    "Binder": "Vk5 combined with the VH of Ab15 (antibody, V domains shown, captured on anti-human IgG Fc tips) VH: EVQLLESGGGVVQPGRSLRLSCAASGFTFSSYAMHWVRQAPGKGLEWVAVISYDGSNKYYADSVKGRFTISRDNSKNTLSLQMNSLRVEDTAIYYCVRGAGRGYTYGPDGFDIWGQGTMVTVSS VL: DIVMTQTPLSLSVTPGQPASISCRSSRSLLHSDGKTYVYWYLQKPGQPPQLLIYELSNRFSGVPDRFSGSGSGTDFTLKISRVEAEDVGVYYCMQYIEAPLTFGGGTKVEIK",
    "pKd": 8.40
  }
]

Memo: Vk12 combined with the VH of Ab15 (antibody, V domains shown, captured on anti-human IgG Fc tips) VH: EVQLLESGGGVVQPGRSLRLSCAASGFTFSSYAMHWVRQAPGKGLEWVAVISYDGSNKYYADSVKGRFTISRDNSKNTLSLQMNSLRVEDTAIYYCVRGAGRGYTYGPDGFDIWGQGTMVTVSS VL: DIVMTQSPLSLPVTPGEPASISCTSSRSLLHSDGKTYVYWYLQKPGQSPQLLIYELSNRFSGVPDRFSGSGSGTDFTLKISRVEAEDVGVYYCMQYIEAPLTFGGGTKVEIK , reported pKd: 8.19

Memo: Vk10 combined with the VH of Ab15 (antibody, V domains shown, captured on anti-human IgG Fc tips) VH: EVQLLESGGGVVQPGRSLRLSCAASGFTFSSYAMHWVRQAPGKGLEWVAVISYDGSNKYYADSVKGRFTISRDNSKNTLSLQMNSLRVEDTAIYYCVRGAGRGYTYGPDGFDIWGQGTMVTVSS VL: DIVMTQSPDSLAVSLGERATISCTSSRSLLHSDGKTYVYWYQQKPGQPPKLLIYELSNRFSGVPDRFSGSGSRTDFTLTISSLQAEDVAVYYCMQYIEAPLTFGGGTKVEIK , reported pKd: 8.27
